- SYSTEM: UniProt:O42275
- MEASUREMENT DESCRIPTION: biochemical
MEASUREMENT KIND: pIC50
Lab note: report pIC50 as minus log10 of the concentration in molar units, number only.

>>> reported_measurement("O=C(O)c1cc(O)c(O)c(O)c1 [Compound 2, gallic acid]")
3.61

// moving on: another record for pIC50
### Prompt Output measured pIC50 for this item: Oc1ccc(/C=C/c2cc(O)cc(O)c2)cc1 [Compound 6, resveratrol]
### Response 3.45

----------
- SYSTEM: acetylcholinesterase (AChE) (Electrophorus electricus)
- Sequence (O42275 24-633): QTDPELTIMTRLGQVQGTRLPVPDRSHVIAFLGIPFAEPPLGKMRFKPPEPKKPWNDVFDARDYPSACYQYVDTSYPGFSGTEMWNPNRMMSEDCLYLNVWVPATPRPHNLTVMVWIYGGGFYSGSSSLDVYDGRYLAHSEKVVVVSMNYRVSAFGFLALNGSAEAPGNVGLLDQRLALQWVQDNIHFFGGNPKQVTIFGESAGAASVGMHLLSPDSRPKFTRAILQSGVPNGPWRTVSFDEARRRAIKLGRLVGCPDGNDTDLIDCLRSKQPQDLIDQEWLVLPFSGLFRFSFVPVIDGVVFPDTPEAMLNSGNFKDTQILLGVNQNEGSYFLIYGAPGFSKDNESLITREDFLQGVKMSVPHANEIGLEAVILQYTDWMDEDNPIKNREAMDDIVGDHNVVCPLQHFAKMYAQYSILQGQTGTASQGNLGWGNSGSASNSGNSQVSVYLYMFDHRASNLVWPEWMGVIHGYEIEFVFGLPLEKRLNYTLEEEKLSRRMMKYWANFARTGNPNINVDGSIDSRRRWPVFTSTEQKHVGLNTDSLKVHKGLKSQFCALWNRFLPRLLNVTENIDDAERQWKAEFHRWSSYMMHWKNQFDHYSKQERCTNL
- MEASUREMENT DESCRIPTION: biochemical
- CONDITION PARAMETERS: isolated components (Table 6); read-out: IC50 AChE (converted)
# reported IC50; entries follow
Give a bare numeral; the unit µM is implied.

Below: 3 compounds and their reported IC50.
>>> reported_measurement("O=C(/C=C/c1ccc(O)c(O)c1)O[C@@H]1C[C@](O)(C(=O)O)C[C@@H](O)[C@H]1O [Chlorogenic acid, chlorogenic acid, reference compound]")
182
>>> reported_measurement("Oc1cc(O)c2c(c1)O[C@H](c1ccc(O)c(O)c1)[C@@H](O)C2")
90.8
>>> reported_measurement("Oc1cc(O)c2c(c1)O[C@H](c1ccc(O)c(O)c1)[C@H](O)C2 [Compound 7, epicatechin]")
184

Could you now consider this next compound?
### Prompt Output measured IC50 for this item: C[C@@H]1CC[C@]2(C(=O)O)CC[C@]3(C)C(=CC[C@@H]4[C@@]5(C)C[C@@H](O)[C@@H](O)C(C)(C)[C@@H]5CC[C@]43C)[C@@H]2[C@]1(C)O
### Response 23.8
